# System: Streptococcus pneumoniae
# PROTOCOL_SUMMARY: Antibacterial activity against penicillin intermediate-resistant Streptococcus pneumoniae isolate I3 by agar dilution method
# Format: functional
MEASUREMENT_KIND: MIC

>>> result("CC[C@H]1OC(=O)[C@H](C)C(=O)[C@H](C)[C@@H](O[C@@H]2O[C@H](C)C[C@H](N(C)C)[C@H]2O)[C@](C)(OC)C[C@@H](C)/C(=N\\OC/C=C/c2ccc3[nH]ccc3c2)[C@H](C)[C@@H](O)[C@]1(C)O")
"0.25 µg/mL"
>>> result("CC[C@H]1OC(=O)[C@H](C)C(=O)[C@H](C)[C@@H](O[C@@H]2O[C@H](C)C[C@H](N(C)C)[C@H]2O)[C@](C)(OC)C[C@@H](C)/C(=N\\OC/C=C/c2ccc3c(c2)CCC3=O)[C@H](C)[C@@H](O)[C@]1(C)O")
"8 µg/mL"
>>> result("CC[C@H]1OC(=O)[C@H](C)C(=O)[C@H](C)[C@@H](O[C@@H]2O[C@H](C)C[C@H](N(C)C)[C@H]2O)[C@](C)(OC)C[C@@H](C)/C(=N\\OC/C=C/c2cccc(C3OCCO3)c2)[C@H](C)[C@@H](O)[C@]1(C)O")
"0.25 µg/mL"
>>> result("CC[C@H]1OC(=O)[C@H](C)C(=O)[C@H](C)[C@@H](O[C@@H]2O[C@H](C)C[C@H](N(C)C)[C@H]2O)[C@](C)(OC)C[C@@H](C)/C(=N\\OC/C=C/c2cccnc2)[C@H](C)[C@@H](O)[C@]1(C)O")
"0.06 µg/mL"
